Measured values drawn from patent US5116848A for this set.

assay: PCC in vivo screen, blood total cholesterol in cholesterol-fed rats; details: male Sprague-Dawley rats, diet with 5.5% peanut oil, 1.5% cholesterol, 0.3%-0.5% cholic acid, 0.05% drug in diet, one week
Result Type: Blood Cholesterol (mg/dL)

> print(dat)
                                   molecule  measured.number
1  CCc1cccc(CC)c1NC(=O)NC(c1ccccc1)c1ccccc1              127
2  CC(C)c1cccc(C(C)C)c1NC(=O)NCC(c1ccccc1)c1ccccc1               95
3  CCc1cccc(CC)c1NC(=O)NC(Cc1ccccc1)c1ccccc1 (stereo not shown)              147
4  CCc1cccc(CC)c1NC(=O)NCC(c1ccccc1)c1ccccc1              105
